- target desc: UniProt:P34972
- Sequence (P34972 whole entry): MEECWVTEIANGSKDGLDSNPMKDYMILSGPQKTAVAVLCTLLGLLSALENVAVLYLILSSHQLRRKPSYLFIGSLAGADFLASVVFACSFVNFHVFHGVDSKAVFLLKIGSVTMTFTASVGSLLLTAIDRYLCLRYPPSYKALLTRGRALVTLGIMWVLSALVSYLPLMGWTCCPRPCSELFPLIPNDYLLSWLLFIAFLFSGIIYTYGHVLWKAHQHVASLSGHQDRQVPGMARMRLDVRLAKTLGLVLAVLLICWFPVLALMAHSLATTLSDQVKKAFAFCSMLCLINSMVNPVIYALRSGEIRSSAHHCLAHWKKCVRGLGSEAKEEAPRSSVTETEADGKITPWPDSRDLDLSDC
- assay procedure: cAMP functional assay in Flpin-CHO-CB2 cells (antagonism of CP55940-mediated decrease in cAMP)
- Format: cell-based
- test parameters: human CB2 receptor, Flpin-CHO-CB2 cells, antagonism of CP55940; read-out: cAMP Assay pIC50 (converted)
# reported IC50; entries follow
I only need the number, in µM, no unit after it.

Reference set, count: 3
> print(dat)
                                   molecule  numeric.result
1  O=c1c2nccnc2nc(SCc2cccc(F)c2)n1Cc1cccs1 [Compound 12]            5.62
2  COc1ccccc1Nc1sc(C(=O)c2ccccc2)c(N)c1S(=O)(=O)c1ccccc1 [Compound 3]           0.339
3  Cc1cccn2c(=O)c(/C=C3\SC(=S)N(Cc4ccco4)C3=O)c(NCC3CCCO3)nc12 (stereo not drawn) [Compound 8]           0.117

Attention now shifts to the item below.
Exam item: # input molecule: CC(=O)N1CCc2c(sc3c2c(=O)n(Cc2ccccc2)c(=O)n3Cc2c(F)cccc2Cl)C1 [Compound 7] ; wanted: its IC50
Marked response: 3.47
